system-tested: T1, mouse IL-2Rβγc on murine cells (CTLL-2 T cells, primary CD4+ T cells) (mouse, UniProt P16297 27-539; P34902 23-369)
T1 sequence (looked up) 1: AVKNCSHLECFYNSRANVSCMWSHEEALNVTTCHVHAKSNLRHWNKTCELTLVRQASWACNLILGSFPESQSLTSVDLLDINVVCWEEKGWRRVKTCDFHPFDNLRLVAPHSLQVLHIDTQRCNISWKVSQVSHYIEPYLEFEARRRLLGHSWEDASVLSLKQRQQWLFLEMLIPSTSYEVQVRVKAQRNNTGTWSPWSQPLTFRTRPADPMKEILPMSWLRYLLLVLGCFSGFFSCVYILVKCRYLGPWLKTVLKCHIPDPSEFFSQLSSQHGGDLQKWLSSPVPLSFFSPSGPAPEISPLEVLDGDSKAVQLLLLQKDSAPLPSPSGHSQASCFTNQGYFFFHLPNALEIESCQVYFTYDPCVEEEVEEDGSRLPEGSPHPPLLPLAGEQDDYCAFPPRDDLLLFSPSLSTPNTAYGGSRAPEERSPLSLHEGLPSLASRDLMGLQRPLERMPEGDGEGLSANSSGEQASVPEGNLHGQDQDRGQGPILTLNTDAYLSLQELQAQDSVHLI
T1 sequence (looked up) 2: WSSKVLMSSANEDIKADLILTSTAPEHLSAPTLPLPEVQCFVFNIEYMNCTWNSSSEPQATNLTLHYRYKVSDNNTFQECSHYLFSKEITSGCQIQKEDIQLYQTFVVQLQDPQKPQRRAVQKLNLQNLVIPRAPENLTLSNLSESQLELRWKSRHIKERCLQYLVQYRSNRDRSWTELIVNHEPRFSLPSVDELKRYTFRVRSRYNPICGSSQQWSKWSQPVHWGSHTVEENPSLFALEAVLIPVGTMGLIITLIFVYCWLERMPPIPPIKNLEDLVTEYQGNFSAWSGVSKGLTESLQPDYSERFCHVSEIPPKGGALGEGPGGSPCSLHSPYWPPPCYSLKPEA
method: cell-based or functional assay
Below, each of the binders is paired with its reported EC50 (CD25+) pSTAT5, murine T (CTLL-2, CD25+) cells value.
readout-type: EC50 (CD25+) pSTAT5, murine T (CTLL-2, CD25+) cells

[[record]]
binder = "G1_neo2_40_1F (designed binder, also called G1_ne02_40_1F) STKKTQLLAEHALLDALMMLNLLPEPNEKLNRIITTMQSWIFTGKIDGDGAQELAKEVEELEQEHEKRGIDVEDYASNLKVILLELA"
reported = "0.2 nM"

[[record]]
binder = "G2_neo2_40_1F_dsn36 (designed binder, E. coli, N-terminal 6xHis tag and thrombin site) PKKKIQLLAEHALLDALMILNIVKTNSQNAEEKLEDYASNVEVILEEIARLMESGDQKDEAEKAKRMKEWMKRIKTTASEDEQEEMANRIITLLQSWIFS"
reported = "1.36 nM"

[[record]]
binder = "Neoleukin-2/15 (designed binder, 100 residues; also called Neo-2/15; Neolukin-2/15) PKKKIQLHAEHALYDALMILNIVKTNSPPAEEKLEDYAFNFELILEEIARLFESGDQKDEAEKAKRMKEWMKRIKTTASEDEQEEMANAIITILQSWIFS"
reported = "0.07 nM"

[[record]]
binder = "mouse interleukin-2 (mIL-2) (ligand, UniProt P04351 21-169, looked up, range 1-149; Baculovirus expression for SPR; also called MmIL-2; mouse IL-2) APTSSSTSSSTAEAQQQQQQQQQQQQHLEQLLMDLQELLSRMENYRNLKLPRMLTFKFYLPKQATELKDLQCLEDELGPLRHVLDLTQSKSFQLEDAENFISNIRVTVVKLKGSDNTFECQFDDESATVVDFLRRWIAFCQSIISTSPQ"
reported = "0.003 nM"

[[record]]
binder = "G2_neo2_40_1F_seq04 (designed binder) TTKKIQLLVEHALLDALMILNLSSESNEKLNRIITTLQSWIFRGEIDPDRARELAKLLEEIREEMRKRGIDTEDYVSNMIVIIRELA"
reported = "1.95 nM"

[[record]]
binder = "G1_neo2_40_1F_H3 (designed binder) STKKTQLLIEHALLDALNMRKKLPEPNEKLSRIITDMQSWIFTGKIDGDGAQQLAKEVEELEQEHEKRGGDVEDYASNLKVILLELA"
reported = "35.2 nM"

[[record]]
binder = "G1_neo2_40_1F_H1 (designed binder) STKKTQLLIEHALLDALDMSRNLPEPNEKLSRIITTMQSWIFTGKIDGDGAQQLAKEVEELEQEHEKRGEDVEDEASNLKVILLELA"
reported = "37.4 nM"

[[record]]
binder = "G2_neo2_40_1F_seq26 (designed binder) TKKKYQLLIEHALLDALMILNLWSESNEKLNRIITTMQSWIFTGTYDPDKAEELEKLAKEIEDEARERGIDTEDYMSNLRVILKELS"
reported = "1.06 nM"

[[record]]
binder = "G1_neo2_40_1F_M2 (designed binder) STKNTQLAAEDALLDALMLRNLLNEPNEKLARIITTMQSWQFTEKIDGDGAQELAKEVEELQQEHEERGIDVEDYASNLKVILLQLA"
reported = "3.11 nM"

[[record]]
binder = "G1_neo2_40_1F_H2 (designed binder) STKKTQLLLEHALLDALHMRRNLPEPNEKLSRIITTMQSWIFTGKIDGDGAQELAKEVEELEQEHEKRGRDVEDDASNLKVILLELA"
reported = "9.38 nM"

[[record]]
binder = "G2_neo2_40_1F_seq16 (designed binder) TKKKIQLLVEHALLDALMILNLSSKSNEKLNRIITTMQSWIFNGTIDPDRARELAKLVEEIRDEMEKNGIDTEDYVSNLKVILEELA"
reported = "2.2 nM"

[[record]]
binder = "G1_neo2_40_1F_H4 (designed binder) STKKTQLLLEHALLDALHMSRELPEPNEKLNRIITDMQSWIFTGKIDGDGAQDLAKEVEELEQEHEKRGGDVEDYASNLKVILLELA"
reported = "0.93 nM"

[[record]]
binder = "G1_neo2_40_1F_M1 (designed binder) STEKTQLAAEHALRDALMLKHLLNEPNEKLARIITTMQSWQFTGKIDGDGAQELAKEVEELQQEHEVRGIDVEDYASNLKVILLHLA"
reported = "0.007 nM"

